These entries and their values trace back to the supplement of paper PMC7724964.

Molecular target: T1, STAM 1-143 VHS (domain begin residue: 1, domain end residue: 143), Q92783
T1 chain: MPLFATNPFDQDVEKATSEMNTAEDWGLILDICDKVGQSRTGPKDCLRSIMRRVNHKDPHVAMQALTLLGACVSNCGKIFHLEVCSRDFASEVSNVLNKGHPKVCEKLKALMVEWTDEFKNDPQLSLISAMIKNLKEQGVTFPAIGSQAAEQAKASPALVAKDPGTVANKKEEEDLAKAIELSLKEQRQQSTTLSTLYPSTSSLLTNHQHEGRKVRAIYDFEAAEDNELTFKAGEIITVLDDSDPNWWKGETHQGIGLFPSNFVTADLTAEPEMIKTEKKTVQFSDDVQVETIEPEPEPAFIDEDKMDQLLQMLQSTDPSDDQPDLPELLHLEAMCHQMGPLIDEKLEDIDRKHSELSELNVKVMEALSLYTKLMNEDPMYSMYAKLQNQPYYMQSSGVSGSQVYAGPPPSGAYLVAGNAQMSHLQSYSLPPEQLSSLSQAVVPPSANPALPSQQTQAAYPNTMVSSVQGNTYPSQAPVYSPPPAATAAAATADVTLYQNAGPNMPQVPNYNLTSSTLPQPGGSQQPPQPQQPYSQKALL
Assay: phage ELISA signal ratio (GST-PRM binding over GST background); higher = stronger binding of peptide-phage to the PRM
Listed next: entries and their corresponding phage ELISA signal ratio.
Keep it simple and answer with nothing but the number.

Solved cases (4 shown):
BINDER | phage ELISA signal ratio
NKHDTEEFMVRTFLSE | 6.48
AYVWDDWVWTSLPWVE | 6.69
HSEIWLMTYLDSLAMY | 13
NPHSHQQFMQAVENHI | 22.2

Next up:
Reported phage ELISA signal ratio for EPYMIQVPWESHWDVH : what is it? 9.25
